TARGET_OR_SYSTEM: FXa enzyme (Bos taurus)
TEST: FXa in vitro inhibition assay (fluorometric SensoLyte Factor Xa Assay Kit)
MEASUREMENT_SETUP: inhibition percentage at 100 μM
VALUE_TYPE: %Inhibition FXa (%)
Respond numerically; units are % and should not be typed.

Past entries and their recorded results:
[[record]]
compound = "CC(C)(C)OC(=O)N1CCN(c2ccc(NC(=O)Cn3cc(-c4ccc(F)cc4)nn3)cc2F)C(=O)C1"
value_type = "%Inhibition FXa"
quantity_unit = "%"
assay_value = 44

[[record]]
compound = "CC(C)(C)OC(=O)N1CCN(c2ccc(NC(=O)Cn3cc(-c4ccc(Cl)cc4)nn3)cc2F)C(=O)C1"
value_type = "%Inhibition FXa"
quantity_unit = "%"
assay_value = 23

[[record]]
compound = "CC(C)(C)OC(=O)N1CCN(c2ccc(NC(=O)Cn3cc(-c4ccc(Br)cc4)nn3)cc2F)C(=O)C1"
value_type = "%Inhibition FXa"
quantity_unit = "%"
assay_value = 22


# evaluate next
Prompt: So what's the measured %Inhibition FXa for this one? CCOC(=O)c1ccc(OC(=O)CCCCCN=C(N)N)cc1.CS(=O)(=O)O [Gabexate mesylate, reference compound]
Response: 93

----------
VALUE_TYPE: melting point

[[record]]
entry_smiles = "Cc1ccc(-c2cn(CC(=O)Nc3ccc(N4CCCCC4=O)c(F)c3)nn2)cc1"
value_type = "melting point"
assay_value = "301 to 302 °C"

[[record]]
entry_smiles = "O=C(Cn1cc(-c2ccccc2)nn1)Nc1ccc(N2CCSCC2=O)c(F)c1"
value_type = "melting point"
assay_value = "276 to 277 °C"


Prompt: So what's the measured melting point for this one? `Cc1ccc(-c2cn(CC(=O)Nc3ccc(N4CCSCC4=O)c(F)c3)nn2)cc1`
Response: 285 to 286 °C

Prompt: So what's the measured melting point for this one? `O=C(Cn1cc(-c2ccc(F)cc2)nn1)Nc1ccc(N2CCOCC2=O)c(F)c1`
Response: 273 to 274 °C

Prompt: So what's the measured melting point for this one? `O=C(Cn1cc(-c2ccc(Cl)cc2)nn1)Nc1ccc(N2CCCCC2=O)c(F)c1`
Response: 302 to 303 °C

Prompt: So what's the measured melting point for this one? `Cc1ccc(-c2cn(CC(=O)Nc3ccc(N4CCOCC4=O)c(F)c3)nn2)cc1`
Response: 282 to 283 °C

Prompt: So what's the measured melting point for this one? `O=C(Cn1cc(-c2ccccc2)nn1)Nc1ccc(N2CCOCC2=O)c(F)c1`
Response: 254 to 255 °C

Prompt: So what's the measured melting point for this one? `Cc1ccc(-c2cn(CC(=O)Nc3ccc(N4CCN(C(=O)OC(C)(C)C)CC4=O)c(F)c3)nn2)cc1`
Response: 204 to 205 °C

----------
TARGET_OR_SYSTEM: UniProt P00743
TEST: FXa in vitro inhibition assay (fluorometric SensoLyte Factor Xa Assay Kit)
MEASUREMENT_SETUP: read-out: %Inhibition FXa, inhibition percentage at 100 μM
Recorded inhibition at 100 µM for the following compounds
Respond numerically; units are % and should not be typed.

Past entries and their recorded results:
[[record]]
entry_smiles = "Cc1ccc(-c2cn(CC(=O)Nc3ccc(N4CCSCC4=O)c(F)c3)nn2)cc1"
assay_value = 31

[[record]]
entry_smiles = "Cc1ccc(-c2cn(CC(=O)Nc3ccc(N4CCN(C(=O)OC(C)(C)C)CC4=O)c(F)c3)nn2)cc1"
assay_value = 27

[[record]]
entry_smiles = "O=C(Cn1cc(-c2ccc(F)cc2)nn1)Nc1ccc(N2CCCCC2=O)c(F)c1"
assay_value = 17


Prompt: Enter reported inhibition at 100 µM observed with UniProt P00743 for `O=C(Cn1cc(-c2ccc(F)cc2)nn1)Nc1ccc(N2CCSCC2=O)c(F)c1`
Response: 25

----------
VALUE_TYPE: melting point

[[record]]
compound = "CC(C)(C)OC(=O)N1CCN(c2ccc(NC(=O)Cn3cc(-c4ccccc4)nn3)cc2F)C(=O)C1 [Compound 8b]"
assay_value = "195 to 196 °C"


Prompt: So what's the measured melting point for this one? O=C(Cn1cc(-c2ccc(Br)cc2)nn1)Nc1ccc(N2CCOCC2=O)c(F)c1 [Compound 8o]
Response: 302 to 303 °C

Prompt: So what's the measured melting point for this one? O=C(Cn1cc(-c2ccc(Br)cc2)nn1)Nc1ccc(N2CCCCC2=O)c(F)c1 [Compound 8m]
Response: 300 to 301 °C

Prompt: So what's the measured melting point for this one? O=C(Cn1cc(-c2ccc(F)cc2)nn1)Nc1ccc(N2CCSCC2=O)c(F)c1 [Compound 8h]
Response: 266 to 267 °C

----------
Recorded IC50 for the following molecules
TARGET_OR_SYSTEM: FXa enzyme (Bos taurus, UniProt P00743)
Sequence (P00743 234-492 limits assumed): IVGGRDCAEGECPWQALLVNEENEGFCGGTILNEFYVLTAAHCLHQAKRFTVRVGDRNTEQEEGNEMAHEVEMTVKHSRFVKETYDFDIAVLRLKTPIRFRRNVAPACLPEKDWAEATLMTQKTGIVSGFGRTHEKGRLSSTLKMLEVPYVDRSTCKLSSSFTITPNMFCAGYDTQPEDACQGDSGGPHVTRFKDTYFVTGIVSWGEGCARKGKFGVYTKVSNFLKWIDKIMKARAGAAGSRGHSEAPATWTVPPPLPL
Sequence (P00743 41-180 partner limits assumed): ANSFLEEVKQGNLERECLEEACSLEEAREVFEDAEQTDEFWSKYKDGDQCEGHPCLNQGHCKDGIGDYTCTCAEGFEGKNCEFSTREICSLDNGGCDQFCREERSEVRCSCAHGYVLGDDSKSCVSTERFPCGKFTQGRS
TEST: FXa in vitro inhibition assay (fluorometric SensoLyte Factor Xa Assay Kit)

Past entries and their recorded results:
[[record]]
entry_smiles = "O=C(Cn1cc(-c2ccc(Cl)cc2)nn1)Nc1ccc(N2CCSCC2=O)c(F)c1"
target_or_system = "FXa enzyme (Bos taurus, UniProt P00743)"
assay_value = "52.9 µM"

[[record]]
entry_smiles = "O=C(Cn1cc(-c2ccccc2)nn1)Nc1ccc(N2CCCCC2=O)c(F)c1"
target_or_system = "FXa enzyme (Bos taurus, UniProt P00743)"
assay_value = "41.2 µM"

[[record]]
entry_smiles = "O=C(Cn1cc(-c2ccc(Br)cc2)nn1)Nc1ccc(N2CCSCC2=O)c(F)c1"
target_or_system = "FXa enzyme (Bos taurus, UniProt P00743)"
assay_value = "17.2 µM"


# evaluate next
Prompt: Enter reported IC50 observed with FXa enzyme (Bos taurus, UniProt P00743) for `O=C(Cn1cc(-c2ccc(Cl)cc2)nn1)Nc1ccc(N2CCOCC2=O)c(F)c1`
Response: 76.2 µM

----------
TARGET_OR_SYSTEM: FXa enzyme (Bos taurus, UniProt P00743)
TEST: FXa in vitro inhibition assay (fluorometric SensoLyte Factor Xa Assay Kit)
MEASUREMENT_SETUP: read-out: %Inhibition FXa, inhibition percentage at 100 μM
VALUE_TYPE: inhibition at 100 µM

Past entries and their recorded results:
[[record]]
molecule = "O=C(Cn1cc(-c2ccccc2)nn1)Nc1ccc(N2CCCCC2=O)c(F)c1 [Compound 8a]"
value_type = "inhibition at 100 µM"
assay_value = "≥ 50%"

[[record]]
molecule = "O=C(Cn1cc(-c2ccc(Cl)cc2)nn1)Nc1ccc(N2CCOCC2=O)c(F)c1 [Compound 8k]"
value_type = "inhibition at 100 µM"
assay_value = "≥ 50%"

[[record]]
molecule = "O=C(Cn1cc(-c2ccc(Br)cc2)nn1)Nc1ccc(N2CCSCC2=O)c(F)c1 [Compound 8p]"
value_type = "inhibition at 100 µM"
assay_value = "≥ 50%"

[[record]]
molecule = "O=C(Cn1cc(-c2ccc(Cl)cc2)nn1)Nc1ccc(N2CCSCC2=O)c(F)c1 [Compound 8l]"
value_type = "inhibition at 100 µM"
assay_value = "≥ 50%"

[[record]]
molecule = "Cc1ccc(-c2cn(CC(=O)Nc3ccc(N4CCCCC4=O)c(F)c3)nn2)cc1 [Compound 8q]"
value_type = "inhibition at 100 µM"
assay_value = "21%"

[[record]]
molecule = "O=C(Cn1cc(-c2ccc(Br)cc2)nn1)Nc1ccc(N2CCOCC2=O)c(F)c1 [Compound 8o]"
value_type = "inhibition at 100 µM"
assay_value = "37%"

[[record]]
molecule = "CC(C)(C)OC(=O)N1CCN(c2ccc(NC(=O)Cn3cc(-c4ccccc4)nn3)cc2F)C(=O)C1 [Compound 8b]"
value_type = "inhibition at 100 µM"
assay_value = "24%"


# evaluate next
Prompt: So what's the measured inhibition at 100 µM for this one? O=C(Cn1cc(-c2ccccc2)nn1)Nc1ccc(N2CCOCC2=O)c(F)c1 [Compound 8c]
Response: 17%
